system_under_test: Adenosine receptor A1 (Bos taurus) (UniProt P28190)
Sequence (P28190 whole entry): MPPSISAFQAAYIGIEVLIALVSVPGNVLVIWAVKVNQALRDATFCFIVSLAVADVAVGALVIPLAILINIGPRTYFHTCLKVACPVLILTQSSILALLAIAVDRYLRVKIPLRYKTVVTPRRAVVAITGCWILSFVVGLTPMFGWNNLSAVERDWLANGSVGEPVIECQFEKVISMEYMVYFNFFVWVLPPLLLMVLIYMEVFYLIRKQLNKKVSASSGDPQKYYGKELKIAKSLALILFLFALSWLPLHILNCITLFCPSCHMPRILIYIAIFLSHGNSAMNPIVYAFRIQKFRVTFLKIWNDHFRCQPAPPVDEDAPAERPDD
assay_comment: Percentage inhibition of [3H]CHA binding to adenosine A1 receptor in bovine cerebral cortical membranes at 34 uM
Type: cell membranes
value_type: inhibition (%)
Write the value in % as a bare number.

O=C(O)c1nc2c(O)nc3ccccc3n2n1 :: 10
Oc1nc2ccc(Cl)cc2n2nc(-c3cccs3)nc12 :: 54.2
CCOC(=O)c1nc2c(=O)n(O)c3ccccc3n2n1 :: 6.9
CCOC(=O)c1nc2c(=O)n(CC)c3ccccc3n2n1 :: 13.3

Entry `COc1ccc(-c2nc3c(O)nc4ccccc4n3n2)cc1` , inhibition reported as 0

###

Recorded Ratio Ki, one value per entry.
system_under_test: Adenosine receptors; A1 & A3 (Homo sapiens) (UniProt P30542+P0DMS8)
assay_comment: Selectivity for human adenosine A3 receptor over human adenosine A1 receptor
Type: protein assay

Use the examples below as a reference point.
CCOC(=O)c1nc2c(O)nc3ccccc3n2n1 :: > 150
COc1ccc(-c2nc3c(O)nc4ccc(C)cc4n3n2)cc1 :: 1.1
Oc1nc2ccc(Cl)cc2n2nc(-c3ccco3)nc12 :: 457
CCOC(=O)c1nc2c(O)nc3ccc(N)cc3n2n1 :: > 400
Oc1nc2ccccc2n2nc(-c3cccs3)nc12 :: 1
O=C(NCc1ccccc1)c1nc2c(O)nc3ccccc3n2n1 :: 2.5

Entry `O=C(OCc1ccccc1)c1nc2c(O)nc3ccccc3n2n1` , Ratio Ki reported as > 200

Entry `Oc1nc2ccc(Cl)cc2n2nc(-c3ccoc3)nc12` , Ratio Ki reported as 1.6

Entry `CCOC(=O)c1nc2c(=O)n(C(=O)OCC)c3ccccc3n2n1` , Ratio Ki reported as > 350

###

system_under_test: Adenosine receptor A1 (Bos taurus) (UniProt P28190)
assay_comment: Percentage inhibition of [3H]CHA binding to adenosine A1 receptor in bovine cerebral cortical membranes at 20 uM
Format: cell membranes
Output YES for inhibition not less than 20%; output NO otherwise.

CC(C)OC(=O)c1nc2c(O)nc3ccccc3n2n1 :: NO
CCOC(=O)c1nc2c(O)nc3ccccc3n2n1 :: YES
Cn1c(=O)c2nc(-c3ccccc3)nn2c2cc(Cl)ccc21 :: NO
CCOC(=O)c1nc2c(=O)n(C(=O)OCC)c3ccccc3n2n1 :: NO
CCOC(=O)c1nc2c(=O)n(C)c3ccc(Cl)cc3n2n1 :: NO
CCOC(=O)c1nc2c(=O)n(C)c3ccccc3n2n1 :: NO

### Prompt Hi team, for `NC(=O)c1nc2c(O)nc3ccccc3n2n1` , is the recorded inhibition at or above 20%?
### Response NO

### Prompt Hi team, for `CCOC(=O)c1nc2c(O)nc3ccc(N)cc3n2n1` , is the recorded inhibition at or above 20%?
### Response YES

### Prompt Hi team, for `CCOC(=O)c1nc2c(O)nc3cc(N)ccc3n2n1` , is the recorded inhibition at or above 20%?
### Response YES

### Prompt Hi team, for `Cn1c(=O)c2ncnn2c2cc(Cl)ccc21` , is the recorded inhibition at or above 20%?
### Response NO

### Prompt Hi team, for `Oc1nc2ccccc2n2ncnc12` , is the recorded inhibition at or above 20%?
### Response YES

### Prompt Hi team, for `Oc1nc2ccc(Cl)cc2n2ncnc12` , is the recorded inhibition at or above 20%?
### Response NO

### Prompt Hi team, for `CCOC(=O)c1nc2c(O)nc3cc(Cl)ccc3n2n1` , is the recorded inhibition at or above 20%?
### Response YES

### Prompt Hi team, for `CCOC(=O)c1nc2c(O)nc3ccc(C)cc3n2n1` , is the recorded inhibition at or above 20%?
### Response YES

###

system_under_test: UniProt P0DMS8
value_type: Ki (nM)
Write the value in nM as a bare number.

Use the examples below as a reference point.
O=c1[nH]c2ccc(Cl)cc2n2nc(-c3cccs3)nc12 :: 257
Cc1ccc2[nH]c(=O)c3nc(-c4ccccc4)nn3c2c1 :: 111
CCOC(=O)c1nc2c(=O)[nH]c3ccc(NC(C)=O)cc3n2n1 :: 673

Entry `O=c1[nH]c2ccccc2n2nc(-c3ccccc3)nc12` , Ki reported as 396

Entry `CCOC(=O)c1nc2c(O)nc3cc(Cl)ccc3n2n1` , Ki reported as 340

Entry `Cc1ccc2c(c1)n1nc(-c3ccccc3)nc1c(=O)n2C` , Ki reported as 308

Entry `COc1ccc(-c2nc3c(=O)[nH]c4ccc(Cl)cc4n3n2)cc1` , Ki reported as 25.8

Entry `CCOC(=O)c1nc2c(=O)[nH]c3ccc(Cl)cc3n2n1` , Ki reported as 557

Entry `Oc1nc2ccc(Cl)cc2n2nc(-c3ccccc3)nc12` , Ki reported as 163

Entry `COc1ccc(-c2nc3c(O)nc4ccc(C)cc4n3n2)cc1` , Ki reported as 2.5

Entry `Nc1nc2ccc(Cl)cc2n2nc(-c3ccccc3)nc12` , Ki reported as 91.4

Entry `CCOC(=O)c1nc2c(=O)n(C)c3ccccc3n2n1` , Ki reported as 820

Entry `COc1ccc(-c2nc3c(N)nc4ccc(Cl)cc4n3n2)cc1` , Ki reported as 2.9

###

system_under_test: Adenosine receptor A3 (Homo sapiens)
Sequence (P0DMS8 whole entry): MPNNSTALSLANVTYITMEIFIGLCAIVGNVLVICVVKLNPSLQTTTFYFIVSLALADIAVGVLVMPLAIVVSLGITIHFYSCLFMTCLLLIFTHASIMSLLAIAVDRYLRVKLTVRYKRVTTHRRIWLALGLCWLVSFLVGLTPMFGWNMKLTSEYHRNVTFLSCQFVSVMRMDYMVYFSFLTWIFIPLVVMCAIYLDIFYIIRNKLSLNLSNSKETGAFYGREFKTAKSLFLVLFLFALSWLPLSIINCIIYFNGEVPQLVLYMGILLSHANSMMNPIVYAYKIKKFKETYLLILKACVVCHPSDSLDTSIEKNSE
assay_comment: Percentage inhibition of [125I]AB-MECA binding to human adenosine A3 receptor expressed in CHO cells at 1 uM
Assay type: cell-based
Output 1 for inhibition not less than 20%; output -1 otherwise.

For orientation, consider the following solved cases.
Cn1c(=O)c2nc(-c3ccccc3)nn2c2cc(Cl)ccc21 :: -1
CCOC(=O)c1nc2c(=O)n(CC)c3ccccc3n2n1 :: -1
CCOC(=O)c1nc2c(N)nc3ccc(Cl)cc3n2n1 :: -1
Cn1c(=O)c2ncnn2c2cc(Cl)ccc21 :: -1
CCOC(=O)c1nc2c(=O)n(C)c3ccc(Cl)cc3n2n1 :: 1
O=C(O)c1nc2c(O)nc3ccccc3n2n1 :: -1
NC(=O)c1nc2c(O)nc3ccccc3n2n1 :: 1
Cn1c(=O)c2nc(-c3ccccc3)nn2c2ccccc21 :: 1

### Prompt Hi team, for `Oc1nc2ccc(Cl)cc2n2ncnc12` , is the recorded inhibition at or above 20%?
### Response -1

### Prompt Hi team, for `Oc1nc2ccccc2n2ncnc12` , is the recorded inhibition at or above 20%?
### Response 1

### Prompt Hi team, for `CCOC(=O)c1nc2c(O)nc3ccc([N+](=O)[O-])cc3n2n1` , is the recorded inhibition at or above 20%?
### Response -1

###

assay_comment: Selectivity for human adenosine A3 receptor over human adenosine A2A receptor
value_type: Ratio Ki

Use the examples below as a reference point.
CCOC(=O)c1nc2c(O)nc3ccccc3n2n1 :: > 150
O=C(OCc1ccccc1)c1nc2c(O)nc3ccccc3n2n1 :: > 200
Oc1nc2ccc(Cl)cc2n2nc(-c3ccco3)nc12 :: > 1700
CCOC(=O)c1nc2c(=O)n(C(=O)OCC)c3ccccc3n2n1 :: > 350

Entry `CCOC(=O)c1nc2c(O)nc3ccc(N)cc3n2n1` , Ratio Ki reported as > 400

###

system_under_test: Adenosine receptor A1 (Homo sapiens)
Sequence (P30542 whole entry): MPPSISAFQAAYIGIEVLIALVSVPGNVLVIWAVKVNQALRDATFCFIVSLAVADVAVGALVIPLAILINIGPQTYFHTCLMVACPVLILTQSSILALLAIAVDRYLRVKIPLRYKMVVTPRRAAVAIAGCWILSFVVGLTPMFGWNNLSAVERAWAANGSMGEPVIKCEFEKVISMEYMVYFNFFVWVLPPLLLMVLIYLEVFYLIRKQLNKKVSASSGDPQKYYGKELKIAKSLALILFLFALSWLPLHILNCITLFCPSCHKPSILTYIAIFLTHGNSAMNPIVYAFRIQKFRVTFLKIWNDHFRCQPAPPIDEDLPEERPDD
Recorded pKi, one value per entry.
Hey, just a heads up that pKi is the negative log base 10 of the concentration in molar.

Entry `COc1ccc(-c2nc3c(=O)[nH]c4ccc(Cl)cc4n3n2)cc1` , pKi reported as 8.48

Entry `Oc1nc2ccccc2n2nc(-c3cccs3)nc12` , pKi reported as 8.70

Entry `COc1ccc(-c2nc3c(N)nc4ccc(Cl)cc4n3n2)cc1` , pKi reported as 7.44

Entry `O=C(NCc1ccccc1)c1nc2c(=O)[nH]c3ccccc3n2n1` , pKi reported as 6.69

Entry `Oc1nc2ccccc2n2nc(-c3ccco3)nc12` , pKi reported as 5.72

Entry `Oc1nc2ccc(Cl)cc2n2nc(-c3ccoc3)nc12` , pKi reported as 6.90

###

System: Adenosine receptor A2a (Bos taurus)
assay_comment: Percentage inhibition of [3H]CGS 21680 binding to adenosine A2A receptor in bovine striatal membranes at 20 uM
experimental_setup: Striatum, Membrane
Output fulfilled for inhibition not less than 20%; output not fulfilled otherwise.

Cc1ccc2nc(O)c3nc(-c4ccccc4)nn3c2c1 :: fulfilled
CCOC(=O)c1nc2c(O)nc3ccc(C)cc3n2n1 :: not fulfilled
CCOC(=O)c1nc2c(=O)n(C(=O)OCC)c3ccccc3n2n1 :: not fulfilled
Cn1c(=O)c2nc(-c3ccccc3)nn2c2cc(Cl)ccc21 :: not fulfilled

### Prompt Hi team, for `CCOC(=O)c1nc2c(O)nc3ccc([N+](=O)[O-])cc3n2n1` , is the recorded inhibition at or above 20%?
### Response not fulfilled
